# SYSTEM: MAGI2_6, Q86UL8
# Sequence (Q86UL8 1141-1229): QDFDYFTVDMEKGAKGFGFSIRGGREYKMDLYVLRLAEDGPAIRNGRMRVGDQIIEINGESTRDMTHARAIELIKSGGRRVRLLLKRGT
# PROTOCOL_NOTES: holdup assay
# Design: key: below the threshold = too weak to quantify, mostly under pKd 3.1 to 4
# MEASUREMENT_PARAMETERS: plain residues with an end cap or a label only (N-terminal biotin on a linker: ahx)
READOUT_KIND: pKd

BINDER: RRRKRKRTYL [HPV49-L2, P36762]
pKd: below the threshold
//
BINDER: TVICWPGSLV [LNX2, Q8N448]
pKd: 3.56
//
BINDER: RAVEEEESRF [PSCDBP, O60759]
pKd: below the threshold
//
BINDER: HNAFLSVTTV [PDZRN4, Q6ZMN7]
pKd: below the threshold
//
BINDER: ESLLLGPSNF [SHROOM4, Q9ULL8]
pKd: below the threshold

Now turn to the next binder.
Query block: Value lookup for pKd; key = SDSSGQEYSL [KCTD3, Q9Y597]
Result block: below the threshold
